test description: GST conjugation of alachlor with glutathione (HPLC)
Assay type: biochemical
condition set: purified enzyme, 0.4 mM electrophilic substrate, 4 mM glutathione, 0.1 M MOPS pH 7.0
activity of enzyme with Alachlor values for the molecules below.
Answer format: numeric, nmol/min/mg implied, no suffix.

Consider the following illustrative entries.
molecule	readout type	recorded value
bms1.pk0023.g8: maize class I GST enzyme encoded by cDNA clone, expressed in E. coli (protein) MAPPMKVYGWAVSPWMARALVCLEEAGADYEIVPMSRCGGDHRRPEHLAKNPFGEIPVLEDGDLTLYQSRAIARYVLRKLKPELLREGDLEGSAMVDAWMEVEAHHMEPALWPIIRHSIIGQYVGRERDHQAVIDENLDRLRKVLPAYEARLSVCKYLVGDDISAADLCHFGFMRYFMATEYAGLVDAYPHVKAWWDALLARPSVQKVMAGMPPDFGYASGNIP	activity of enzyme with Alachlor	0
cs1.pk0010.c5: maize class I GST enzyme encoded by cDNA clone, expressed in E. coli (protein) MAAGLQVFGQPASTDVARVLTCLFEKKLEFELVRIDTFKTHHRLPEFIRLRDPNGQVTFKHGDKTLVDSRDICRYVCNQFPNYGNKSLYGSGALERASIEQWLQAEAQNFGPPSSALVFQLAFVPHLSHLGVRQDPAVIAENEDKLKQVLDVYDEILSKNEYLAGDEFTLADLSHLPNSHYIVNTERGRKLFTNKKNVAKWYDRLSKRETWVQVVKMQKEHPGAFK	activity of enzyme with Alachlor	0
ceb1.pk0017.a5: maize class I GST enzyme encoded by cDNA clone, expressed in E. coli (protein) MAAPVTVYGPMLSPAVARVAACLLEKDVPFQIEPVDMSKGEHKSPSFLKLQPFGQVPAFKDHLTTVFESRAICRYICDQYADSGNQALFGKKEDGAVGRAAIEQWIESEGQSFNPPSLAIIFQLAFAPMMGRTTDLAVVEQNEAKLAKVLDVYDQRLGESQYFAGDDFSPGRPCALAQCRFPCEQNQQGWLDHREKESC	activity of enzyme with Alachlor	0
ceb5.pk0049.a11: maize class III GST enzyme encoded by cDNA clone, expressed in E. coli (protein) MAEEKKQGLQLLDFWVSPFGQRCRIALDEKGLAYEYLEQDLRNKSELLLRANPVHKKIPVLLHDGRPVCESLVIVQYLDEAFPEAAPALLPADPYARAQARFWADYVDKKLYDCGTRLWKLKGDGQAQARAEMVEILRTLEGALGDGPFFGGDALGFVDVALVPFTSWFLAYDRFGGVSVEKECPRLAAWAKRCAERPSVAKNLYPPEKVYDFVCGMKKRLGIE	activity of enzyme with Alachlor	18

Please examine the following record next.
Query block: Query: activity of enzyme with Alachlor; subject: ceb5.pk0051.f8: maize class III GST enzyme encoded by cDNA clone, expressed in E. coli (protein) MAGETKKGLVLLDFWVSPFGQRCRIALAEKGIAYEYSEQELLGGAKSDILLRSNPVHKKIPVLLHDGRPVCESLVILEYLEEAFPEASPRLLPDAAYARAQARFWAAYSDKVYKAGTRLWKLRGDARAQARAEIVQVVRNLDGELGDKAFFGGEAFGFVDVALVPFVPWLPSYERYGDFSVAEIAPRLAAWARRCAQRESVARTLHPPEKVDEFINLLKKTYGIE
Result block: 27
